Please provide measured log10(Ki) for the entries that follow.
target: DLK (Homo sapiens, UniProt Q12852); conditions: read-out: DLK (Ki) μM; TR-FRET; 5 nM GST-tagged DLK (catalytic domain aa 1-520), 40 nM HIS-MKK4 K131M substrate, 30 μM ATP, 60 minutes
// units: µM (pre-log); metric: Ki; scale: log10

Input: Please report the recorded log10(Ki) for Nc1ncc(-c2cc([C@H]3[C@@H]4CN(C5COC5)C[C@@H]43)n(CC3CC3)n2)cc1OC(F)F [Compound 173] .
Output: -2.41

Input: Queued: CC(C)Oc1cc(-c2cc(C3CCN(C4COC4)CC3)n(C(C)C)n2)cnc1N [Compound 84]
Output: -0.59

Input: Queued: CC(=O)N1CC(c2cc(-c3cnc4[nH]cc(C)c4c3)nn2C(C)C)C1 [Compound 12]
Output: -1.59

Input: Queued: CC(=O)N1CC(c2cc(-c3cnc4[nH]cc(C)c4c3)nn2CC2CC2)C1 [Compound 9]
Output: -1.12

Input: Queued: CC(C)n1nc(-c2cnc(N)c(C(F)(F)F)c2)cc1[C@H]1[C@@H]2CN(CC(C)(C)O)C[C@@H]21 [Compound 128]
Output: -1.96

Input: Queued: COCCN1C[C@@H]2[C@H](C1)[C@H]2c1cc(-c2cnc(N)c(C(F)(F)F)c2)nn1CC1CC1 [Compound 122]
Output: -2.10

Input: Queued: COCC(C)N1C[C@@H]2[C@H](C1)[C@H]2c1cc(-c2cnc(N)c(C(F)(F)F)c2)nn1C(C)C (some centres unmarked) [Compound 129]
Output: -2.89

Input: Queued: Nc1ncc(-c2cc([C@H]3[C@@H]4CN(C5COC5)C[C@@H]43)n(C3CCCC3)n2)cc1C1CC1 [Compound 139]
Output: -1.43

Input: Queued: COCCN1C[C@@H]2[C@H](C1)[C@H]2c1cc(-c2cnc(N)c(Cl)c2)nn1C(C)C [Compound 118]
Output: -1.47

Input: Queued: Nc1ncc(-c2cc(C3CCN(C4COC4)CC3)n(C3CCCC3)n2)cc1Cl [Compound 71]
Output: -0.57

Input: Queued: COCCN1C[C@@H]2[C@H](C1)[C@H]2c1cc(-c2cnc(N)c(OC(F)(F)F)c2)nn1C(C)C [Compound 125]
Output: -2.24

Input: Queued: CC(C)n1nc(-c2cnc(N)c(OC(F)F)c2)cc1C(C)(C)O [Compound 3]
Output: -0.85

Input: Queued: COCCN1C[C@@H]2[C@H](C1)[C@H]2c1cc(-c2cnc(N)c(OC(F)F)c2)nn1C(C)C [Compound 119]
Output: -2.26

Input: Queued: CC(=O)N1CCC(c2cc(-c3cnc4[nH]cc(C)c4c3)nn2C(C)C)CC1 [Compound 49]
Output: -1.72

Input: Queued: CC(C)n1nc(-c2cnc(N)c(OC(F)F)c2)cc1C1CCN(C2COC2)CC1 [Compound 99]
Output: -1.16

Input: Queued: Cc1c[nH]c2ncc(-c3cc(C4CCN(C5COC5)CC4)n(C(C)C)n3)cc12 [Compound 69]
Output: -2.43

Input: Queued: CC(C)n1nc(-c2cnc3c(c2)C(C)(C)CN3)cc1C1CCN(C2COC2)CC1 [Compound 95]
Output: 0.08

Input: Queued: Cc1c[nH]c2ncc(-c3cc(C4CCN(C5COC5)C4)n(C(C)C)n3)cc12 (centres unmarked) [Compound 64]
Output: -2.35

Input: Queued: CC(C)n1nc(-c2cnc(N)c(C(F)(F)F)c2)cc1[C@H]1[C@@H]2CN(S(C)(=O)=O)C[C@@H]21 [Compound 108]
Output: -2.31

Input: Queued: CC(=O)N1CC(c2cc(-c3cnc4[nH]cc(C(F)(F)F)c4c3)nn2CC2CC2)C1 [Compound 8]
Output: -2.00

Input: Queued: CC(C)n1nc(-c2cnc(N)c(C(F)(F)F)c2)cc1C1CCN(C2COC2)C1 (centres unmarked) [Compound 67]
Output: -1.52

Input: Queued: Nc1ncc(-c2cc([C@H]3[C@@H]4CN(C5COC5)C[C@@H]43)n(CC3CCC3)n2)cc1OC(F)F [Compound 164]
Output: -1.89

Input: Queued: CC(C)n1nc(-c2cnc3[nH]cc(F)c3c2)cc1C1CCN(C2COC2)C1 (centres unmarked) [Compound 66]
Output: -0.96

Input: Queued: CC(C)OC(=O)N1C[C@@H]2[C@H](C1)[C@H]2c1cc(-c2cnc(N)c(C(F)(F)F)c2)nn1C(C)C [Compound 130]
Output: -2.25

Input: Queued: Nc1ncc(-c2cc([C@H]3[C@@H]4CN(C5COC5)C[C@@H]43)n(C3CCC3)n2)cc1OC(F)F [Compound 151]
Output: -2.26

Input: Queued: Nc1ncc(-c2cc([C@H]3[C@@H]4CN(C5COC5)C[C@@H]43)n(CC3CCC3)n2)cc1C1CC1 [Compound 162]
Output: -1.18

Input: Queued: Nc1ncc(-c2cc(C3CCN(C4COC4)CC3)n(C3CCC(F)(F)C3)n2)cc1OCC1CC1 (centres unmarked) [Compound 87]
Output: -0.19

Input: Queued: CN1CCC(c2cc(-c3cnc4[nH]cc(C(F)(F)F)c4c3)nn2C2CC(F)(F)C2)CC1=O (centres unmarked) [Compound 45]
Output: -0.85

Input: Queued: Cc1c[nH]c2ncc(-c3cc(C4CCN(C5COC5)C4)n(C)n3)cc12 (centres unmarked) [Compound 63]
Output: -1.47

Input: Queued: Nc1ncc(-c2cc(C3CCOC3)n(C3CCC(F)(F)C3)n2)cc1Cl (centres unmarked) [Compound 23]
Output: -0.46

Input: Queued: CC(C)n1nc(-c2cnc3[nH]cc(Cl)c3c2)cc1C1CCN(C2COC2)CC1 [Compound 72]
Output: -1.82

Input: Queued: Nc1ncc(-c2cc([C@H]3[C@@H]4COC[C@@H]43)n(C3CCCC3)n2)cc1Cl [Compound 105]
Output: -1.02

---

Biological target: DLK (Homo sapiens)
Sequence (Q12852 1-520): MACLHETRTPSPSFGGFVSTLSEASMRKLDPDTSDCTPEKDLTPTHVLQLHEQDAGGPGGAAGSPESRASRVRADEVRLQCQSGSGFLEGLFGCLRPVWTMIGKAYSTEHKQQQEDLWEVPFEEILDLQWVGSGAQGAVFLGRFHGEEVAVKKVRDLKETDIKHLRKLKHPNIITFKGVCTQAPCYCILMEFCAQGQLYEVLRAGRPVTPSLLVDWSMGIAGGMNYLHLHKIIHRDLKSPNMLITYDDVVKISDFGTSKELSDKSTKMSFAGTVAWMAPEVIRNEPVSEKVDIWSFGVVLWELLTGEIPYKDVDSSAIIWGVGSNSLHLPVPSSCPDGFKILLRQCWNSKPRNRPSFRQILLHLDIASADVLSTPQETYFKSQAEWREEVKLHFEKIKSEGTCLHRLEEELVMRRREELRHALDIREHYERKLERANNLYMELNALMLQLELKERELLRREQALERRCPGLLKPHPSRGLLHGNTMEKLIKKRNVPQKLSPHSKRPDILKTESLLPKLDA
Conditions: read-out: DLK (Ki) μM; TR-FRET; 5 nM GST-tagged DLK (catalytic domain aa 1-520), 40 nM HIS-MKK4 K131M substrate, 30 μM ATP, 60 minutes
measurement_type: Ki (µM)
# number only, unit µM dropped from output

Input: Please report the recorded Ki for N#Cc1cc(-c2cc([C@H]3[C@@H]4CN(C5COC5)C[C@@H]43)n(C3CCCC3)n2)cnc1N .
Output: 0.031

Input: Queued: Nc1ncc(-c2cc([C@H]3[C@@H]4CN(C5COC5)C[C@@H]43)n(C3CCCC3)n2)cc1Cl
Output: 0.024

Input: Queued: COCCN1C[C@@H]2[C@H](C1)[C@H]2c1cc(-c2cnc(N)c(C(F)(F)F)c2)nn1CC1CCC1
Output: 0.027

Input: Queued: CC(C)n1nc(-c2cnc(N)c(C(F)(F)F)c2)cc1[C@H]1[C@@H]2CN(CCC#N)C[C@@H]21
Output: 0.0059

Input: Queued: CC(C)n1nc(-c2cnc(N)c(OC(F)(F)F)c2)cc1[C@H]1[C@@H]2CN(C3COC3)C[C@@H]21
Output: 0.0019

Input: Queued: CC(C)n1nc(-c2cnc3[nH]cc(C#N)c3c2)cc1C1CN(C2COC2)C1
Output: 0.31

Input: Queued: FC(F)(F)c1c[nH]c2ncc(-c3cc(C4CCOC4)n(C4CCOC4)n3)cc12 (stereo not drawn)
Output: 0.035

Input: Queued: FC1(F)CCC(n2nc(-c3cnc4[nH]cc(C(F)(F)F)c4c3)cc2C2CCOC2)C1 (stereo not drawn)
Output: 0.013

Input: Queued: CC(C)n1nc(-c2cnc(N)c(C(F)(F)F)c2)cc1[C@H]1[C@@H]2CN(CC(F)F)C[C@@H]21
Output: 0.001

Input: Queued: CC(C)n1nc(-c2cnc(N)c(C3CC3)c2)cc1C1CCN(C2COC2)CC1
Output: 0.36

Input: Queued: CC(C)n1nc(-c2cnc(N)c(C(F)(F)F)c2)cc1C1CCN(C)CC1
Output: 0.045

Input: Queued: CC(C)n1nc(-c2cnc(N)c(C(F)(F)F)c2)cc1C1CCN(C2CCC2)CC1
Output: 0.034

Input: Queued: COCCN1C[C@@H]2[C@H](C1)[C@H]2c1cc(-c2cnc(N)c(C(F)(F)F)c2)nn1CC(F)(F)F
Output: 0.0019

Input: Queued: Nc1ncc(-c2cc([C@H]3[C@@H]4CN(C5COC5)C[C@@H]43)n(CC3CC3)n2)cc1C(F)(F)F
Output: 0.00017

Input: Queued: COCCN1C[C@@H]2[C@H](C1)[C@H]2c1cc(-c2cnc(N)c(C(F)(F)F)c2)nn1C(C)C
Output: 0.0094
